I'd appreciate it if you could supply -Delta G values for the items below.
Please respond with the number in kcal/mol and leave the unit unwritten.

Input: Provide -Delta G, system Dihydrofolate reductase (Enterococcus faecium), entry O=c1[nH]c(=O)c2cc(Sc3ccc4ccccc4c3)ccc2[nH]1
Output: 6.9

Input: Provide -Delta G, system Dihydrofolate reductase (Enterococcus faecium), entry Cc1c(NCc2ccc(C(=O)O)cc2)ccc2nc(N)nc(O)c12
Output: 6.5

Input: Provide -Delta G, system Dihydrofolate reductase (Enterococcus faecium), entry Cc1c(CNc2ccc(C(=O)NC(CC(=O)O)C(=O)O)cc2)ccc2nc(N)nc(N)c12 (stereo unspecified)
Output: 12.7

Input: Provide -Delta G, system Dihydrofolate reductase (Enterococcus faecium), entry CCCCOC(=O)c1ccc(NCc2ccc3nc(N)nc(N)c3c2C)cc1
Output: 12.1

Input: Provide -Delta G, system Dihydrofolate reductase (Enterococcus faecium), entry Nc1nc(O)c2c(Sc3ccc4ccccc4c3)cccc2n1
Output: 7.4

Input: Provide -Delta G, system Dihydrofolate reductase (Enterococcus faecium), entry Nc1nc(N)c2c(/C=C\c3ccc4ccccc4c3)cccc2n1
Output: 11.1

Input: Provide -Delta G, system Dihydrofolate reductase (Enterococcus faecium), entry CCCCOC(=O)c1ccc(NCc2ccc3nc(N)nc(N)c3c2Cl)cc1
Output: 11.4

Input: Provide -Delta G, system Dihydrofolate reductase (Enterococcus faecium), entry Nc1nc(N)c2c(S(=O)(=O)c3ccc(Cl)c(Cl)c3)cccc2n1
Output: 9

Input: Provide -Delta G, system Dihydrofolate reductase (Enterococcus faecium), entry CCOC(=O)c1ccc(NCc2ccc3nc(N)nc(N)c3c2Cl)cc1
Output: 12.8

Input: Provide -Delta G, system Dihydrofolate reductase (Enterococcus faecium), entry Nc1nc(O)c2cc(Sc3ccc(Cl)c(Cl)c3)ccc2n1
Output: 9.1

Input: Provide -Delta G, system Dihydrofolate reductase (Enterococcus faecium), entry Oc1nc(S)nc2ccc(Sc3ccc4ccccc4c3)cc12
Output: 6.2

Input: Provide -Delta G, system Dihydrofolate reductase (Enterococcus faecium), entry Nc1nc(N)c2cc(Sc3ccc(Cl)c(Cl)c3)ccc2n1
Output: 12.2

Input: Provide -Delta G, system Dihydrofolate reductase (Enterococcus faecium), entry Nc1nc(N)c2cc(Sc3cccc(C(F)(F)F)c3)ccc2n1
Output: 13.4

Input: Provide -Delta G, system Dihydrofolate reductase (Enterococcus faecium), entry CCOC(=O)c1ccc(CNc2ccc3nc(N)nc(O)c3c2Cl)cc1
Output: 9.3

Input: Provide -Delta G, system Dihydrofolate reductase (Enterococcus faecium), entry Nc1nc(O)c2cc(NCc3ccc(C(=O)O)cc3)ccc2n1
Output: 7.2

Input: Provide -Delta G, system Dihydrofolate reductase (Enterococcus faecium), entry Nc1ncnc2ccc([S+]([O-])c3ccc4ccccc4c3)cc12 (stereo unspecified)
Output: 7.2

Input: Provide -Delta G, system Dihydrofolate reductase (Enterococcus faecium), entry CCOC(=O)c1ccc(NCc2ccc3nc(N)nc(N)c3c2C)cc1
Output: 12.3

Input: Provide -Delta G, system Dihydrofolate reductase (Enterococcus faecium), entry Nc1nc(N)c2cc(S(=O)(=O)c3ccc4ccccc4c3)ccc2n1
Output: 12.4

Input: Provide -Delta G, system Dihydrofolate reductase (Enterococcus faecium), entry Nc1nc(N)c2cc(CNc3ccc(C(=O)O)cc3)ccc2n1
Output: 13

Input: Provide -Delta G, system Dihydrofolate reductase (Enterococcus faecium), entry Nc1nc(N)c2c(CSc3ccc(Cl)cc3)cccc2n1
Output: 10.9

Input: Provide -Delta G, system Dihydrofolate reductase (Enterococcus faecium), entry CCOC(=O)c1ccc(CNc2ccc3nc(N)nc(N)c3c2C)cc1
Output: 13.1

// data source = ChEMBL document CHEMBL1122106
